Test summary: in vitro
Condition label: human, mt-2 cells
Value type: CC50 at 72 h

Cc1cn([C@H]2C[C@H](N=[N+]=[N-])[C@@H](CO)O2)c(=O)[nH]c1=O [AZT, 3'-azido-3'-deoxythymidine] has a reported CC50 at 72 h of > 100 µg/mL
